molecular target: AMP-activated protein kinase, AMPK (Homo sapiens) (UniProt P54646+O43741+P54619+Q9UGJ0+Q9Y478+Q13131+Q9UGI9); assay: AMP-dependent Kinase enzyme assay. An in vitro enzyme assay that detects ADP turnover that is directly proportional to AMPK activity. This uses naive AMPK that is activated during the assay with MK-8722; format: functional; parameters: scale not given: direction of the effect not stated beside the values; details: 30 µM
Measured quantity: Percent Effect (%)

> print(dat)
                                   compound  measurement
1  CNS(=O)(=O)CC(=O)NCc1cc2c(s1)CCC(C)(C)C2        -1.02
2  c1ccc(CCN2CCCC2c2cccc(Nc3nccs3)n2)cc1 (stereo unspecified)         3.49
3  Cc1nn(C)c(C)c1-c1ccc(=O)n(C(C)C(=O)NC2CCCCC2)n1 (stereo unspecified)         12.6
4  Cc1ccc(C(=O)NC2CCN(S(C)(=O)=O)CC2)c(=O)[nH]1         1.76
5  COCCCN1CCCC(c2nccn2CC2CCC2)C1 (stereo unspecified)        0.821
6          CCn1ccnc1CNCc1ccc(C)cc1OC(C)(C)C         25.5

###

biological target: Sialic acid-binding Ig-like lectin 9 (Homo sapiens); experiment: Hs-Siglec9 ALPHAscreen SOP 20170721; design: scale not given: direction of the effect not stated beside the values; conditions: 10 µM
Measured quantity: Percent Effect (%)

> print(dat)
                                    compound  measurement
 1       CCCc1nc(C)c(C(=O)NCCN2CCN(CC)CC2)s1         11.4
 2  Clc1ccccc1-c1nc(CNC2CCc3ncnn3C2)cs1 (stereo not given)         -3.7
 3   CN(C)c1ccc(C(=O)N2CCN(Cc3cscn3)CC2)cc1F         8.14
 4  Cc1nc(C)n(CC2CCCN2Cc2nc3ccccc3nc2C)n1 (stereo not given)         4.74
 5  CN(C)S(=O)(=O)N1CCCC(c2cccc(Cc3ccccc3)n2)C1 (stereo not given)        -7.39
 6  COc1c(C2CCCN2C(=O)c2cncnc2C)c(C)nn1C (stereo not given)          0.3
 7  Cn1cc(CN2CCCC3(CCCN3S(C)(=O)=O)C2)cn1 (stereo not given)        -4.49
 8  CNC(=O)[C@@H]1C[C@H]2CN(Cc3ccco3)C[C@H]2N1C        -0.86
 9  CC(C)NC(=O)CC1COC2(CCN(Cc3cccs3)CC2)C1 (stereo not given)        -2.18
10  Cc1cc2c(=O)n3c(nc2s1)CCN(Cc1cnc(C(C)C)nc1)CC3        -0.31
11  COc1ccc(OCCN(C)C(=O)NC(C)c2nncn2C)cc1 (stereo not given)       -0.704
12          O=C(NCCO)c1ccn(-c2ccc3ccccn23)n1        -8.91
13  CCC(=O)N1CCCC1c1nccnc1Nc1nc(C)cc(C)n1 (stereo not given)        0.282
14   Cn1ccc(CN2CCC(NC(=O)NC3CCCCC3)CC2)cc1=O         10.4
15  COCCc1noc(CNC2CCSC2)n1 (stereo not given)         11.7
16  Cc1ccoc1-c1nnc(CN2CCCC(Cn3cncn3)C2)o1 (stereo not given)         3.64
17  Cc1ccc(-c2cc(CN3CCOC(Cn4cncn4)C3)on2)cc1 (stereo not given)         4.78
18               O=C(NCCCNc1ccccc1)c1scnc1Cl        -2.42
19  Cc1[nH]nc(CCC(=O)N2CCCC(OCc3cccnc3)C2)c1C (stereo not given)         4.22
20  Fc1cnc(N2CCOCC3(CCCN(c4nncs4)C3)C2)nc1 (stereo not given)        -1.88
21    O=C(CCOc1ccc(Cl)cc1)N1CCN(c2cnccn2)CC1         5.24
22  Cc1ccc(OCC(O)CN2CCC(Cn3cccn3)CC2)cc1 (stereo not given)         7.42
23      O=C(Cn1cc(-c2ccccc2)ncc1=O)Nc1ccncc1          4.3
24  CC1(C)OCC(CNC(=O)c2cnn(-c3cc(Cl)ccc3Cl)c2N)O1 (stereo not given)        -9.42
25  CC(C)N1CCO[C@H]2CN(C(=O)c3ccoc3)C[C@H]21        -7.81

###

target: AMP-activated protein kinase, AMPK (Homo sapiens) (UniProt P54646+O43741+P54619+Q9UGJ0+Q9Y478+Q13131+Q9UGI9); test: AMP-dependent Kinase enzyme assay. An in vitro enzyme assay that detects ADP turnover that is directly proportional to AMPK activity. This uses naive AMPK that is activated during the assay with MK-8722; type: functional; design: scale not given: direction of the effect not stated beside the values; details: 30 µM
Here, each record is paired with measured Percent Effect data.
Measured quantity: Percent Effect (%)

> print(dat)
                                    compound  measured.quantity  measurement
 1        CN1CC2(CCN(CCCOCc3ccccc3)CC2)OC1=O     Percent Effect         2.54
 2  Cc1cccc(C)c1NC(=O)NCC1CCCN(C2CCOCC2)C1 (centres undefined)     Percent Effect         5.67
 3  CCC(C(=O)NCCc1coc(-c2ccc(C)cc2)n1)N(C)C (centres undefined)     Percent Effect         6.54
 4  O=C(CN1CCC(c2nnc(C(F)(F)F)o2)CC1)NCc1ccccc1     Percent Effect        0.729
 5     Cc1cc(-c2cnc(N3CCN(C)CC3)nc2C(C)C)on1     Percent Effect         16.2
 6  CN1CC(c2ccccc2)CC2(CCN(Cc3ncc[nH]3)CC2)C1 (centres undefined)     Percent Effect        -6.61
 7  N#Cc1cc(S(N)(=O)=O)ccc1N1CCc2c(Cl)cccc2C1     Percent Effect         17.4
 8        C[C@@H]1CN(c2ccc(Cl)cn2)C[C@]1(C)O     Percent Effect        -1.99
 9  COCC(O)CNC(=O)c1cc(COc2ccc3c(c2)CCCC3)on1 (centres undefined)     Percent Effect       -0.134
10  CN1CCc2nc(C3CCCN(S(=O)(=O)c4ccccc4)C3)ncc2C1 (centres undefined)     Percent Effect         6.25
11           CN(C)C(=O)Cn1cnc2c(Br)cccc2c1=O     Percent Effect        -4.74
12        COc1cccc(-c2nc(CNCCc3cccnc3)cs2)c1     Percent Effect        -3.62
13       Cc1ccccc1N1CCCN(C(=O)CCc2nncn2C)CC1     Percent Effect        -4.54
14  Cc1nc2c(c(=O)[nH]1)CN(C(=O)CC[C@@H]1CCCN3CCCC[C@H]13)C2     Percent Effect         16.1
15      O=S(=O)(NCCCn1cncn1)c1ccc2c(c1)CCCC2     Percent Effect         6.33
16   CCS(=O)(=O)NCC(=O)N(C1CC1)C1Cc2ccccc2C1     Percent Effect        -4.92
17  O=C1CN(Cc2cn(C3CCN(C4CSCCSC4)CC3)nn2)CCN1     Percent Effect        -9.53
18  COCC(=O)N1CCCC1(C(=O)N(C)C)c1cnccn1 (centres undefined)     Percent Effect          6.8
19  CN1CCC(NC(=O)c2cc(F)cc(Cl)c2O)C1=O (centres undefined)     Percent Effect         11.4
20  O=C(c1cccc(-n2cnnc2)c1)N1C[C@@H](O)[C@H](N2CCOCC2)C1     Percent Effect         15.5
21  Cc1ccnc(C2(C)CCCN2S(=O)(=O)c2ccccc2)n1 (centres undefined)     Percent Effect        -5.61
22  CCc1nn(C)c(Cl)c1CN1CCCC2(CC1)CN(C)C(=O)O2 (centres undefined)     Percent Effect        -9.39
23  CC1CN(Cc2cccc(CN)c2)CCO1 (centres undefined)     Percent Effect        -4.57
24  CCOC(=O)C1(NC(=O)CCNc2cc(C)ccc2OC)CCCCC1     Percent Effect          6.8

###

Listing of entries alongside the reported Percent Effect.
molecular target: AMP-activated protein kinase, AMPK (Homo sapiens) (UniProt P54646+O43741+P54619+Q9UGJ0+Q9Y478+Q13131+Q9UGI9); assay: AMP-dependent Kinase enzyme assay. An in vitro enzyme assay that detects ADP turnover that is directly proportional to AMPK activity. This uses naive AMPK that is activated during the assay with MK-8722; type: functional; set-up: scale not given: direction of the effect not stated beside the values; conditions: 30 µM
Measured quantity: Percent Effect (%)

> print(dat)
                                    molecule  measurement
 1  Cc1ncoc1C(=O)N1CCOC(Cc2ccccc2)C1 (centres undefined)         8.13
 2  Cc1cc(CN2CCC(C3CCN(CCc4ccccc4)CC3)C2)[nH]n1 (centres undefined)        -4.05
 3   COC(=O)c1ncccc1N1CCN(C(=O)CN2CCOCC2)CC1         5.94
 4               Cn1ccnc1CNCCNc1ncc(Cl)cc1Cl         -1.1
 5  Cc1nccn1-c1nccnc1C1CCCN(C2CCCC2)C1 (centres undefined)         12.6
 6  CN(Cc1csc2ccccc12)C(=O)NC1CCS(=O)(=O)C1 (centres undefined)         8.42
 7    COC1CCN(c2ccc(F)cc2CN(C)S(C)(=O)=O)CC1         6.29
 8  CN(C)S(=O)(=O)N1CCCCCC1c1cc(-c2ccc(F)cc2)no1 (centres undefined)           18
 9            CCN(C(=O)Cn1cc(Cl)cn1)c1ccccc1        -10.4
10  CC(C)CCN(C(=O)Nc1cccc(C(=O)N(C)C)c1)C1CC1        -4.54
11  COc1ccc(Cn2c(Cc3c(C)n[nH]c3C)n[nH]c2=O)cc1         -5.3
12  Cc1noc(C)c1CCc1nc(C2CCOC2)no1 (centres undefined)        -7.75
13          Cc1nccn1CCN1C(=O)CC2(CCCC2)CC1=O         8.33
14   N#Cc1ccc(NCc2cccnc2N2CCC(C(N)=O)CC2)cn1         2.13
15          COCCN(Cc1ccccc1)C(=O)c1cnn(C)c1C         2.02
16          CC(C)(NCCCOc1ccc(C#N)cc1)c1nccs1         3.77
17  CN(C)c1ncccc1N(C)C(=O)Cn1cc(-c2ccccc2)nn1        -17.2
18  CSCCC(NC(=O)c1ccco1)C(=O)N(C)Cc1ccsc1 (centres undefined)        -5.54
19  CN(Cc1n[nH]c2c1CCC2)C(=O)c1cc(-c2cccn2C)n[nH]1        -16.6
20                 CCCN(CCC)C(=O)c1cnn(C)c1C         3.84
21  OC[C@@H]1CCCN1Cc1cn(C2CCN(C3CCCC3)CC2)nn1        -1.95
22  CC(NCc1cnc(N2CCOCC2)s1)c1ccc(Cl)s1 (centres undefined)         9.15
23  CC1CCN(Cc2ccccc2CNC(=O)C2CNC(=O)N2)CC1 (centres undefined)        -1.18
24          CN(Cc1csc(-c2cccs2)n1)Cc1cccnc1N         3.93
25        O=C(NCc1nncn1C1CC1)c1ccccc1OCC1CC1         1.41
26  O=C(C1COCCO1)N1CCN(CC(F)(F)F)c2ccccc21 (centres undefined)         12.8
27    CCc1ncc2c(n1)CN(c1cc(NC3CC3)nc(N)n1)C2         -118
28             CSc1ccc(NC(=O)Cn2cc(N)cn2)cc1        -79.3
29   CCc1ccc(NC(=O)CCN2CC(n3nc(C)cc3C)C2)cc1        -4.58
30  CCc1ccc2nc(C)cc(C(=O)NC[C@@H]3CCNC[C@H]3O)c2c1         -4.5
31  CC1(C)CC(CN2CCC3(CCC(=O)N(C4CCC4)C3)CC2)CCO1 (centres undefined)        -1.15
32  C[C@@H]1CN(S(=O)(=O)N2CCCCCC2)C[C@@]1(O)C1CCC1        -7.79
33  CCCC1(CO)CCCN(C(=O)CNC(C)=O)C1 (centres undefined)        -1.86
34                 Fc1ccc(OCCCNC2=NCCCN2)cc1         0.73
35  O=C(O)c1ccn(-c2ccccc2NC(=O)c2ccccc2Cl)n1         5.51
36  O=C(CC1CC1)N1C[C@@H](O)[C@H](N2CCN(c3ccccc3)CC2)C1        -9.15
37  CSCC[C@H](NC(C)=O)C(=O)N(C)Cc1ccc(-n2cccn2)cc1        -8.05
38  CC(=O)N1CCC1c1nc(-c2ccc(C)s2)no1 (centres undefined)         7.59
39        CCn1cnnc1CCNC(=O)CCNC(=O)c1ccccc1F       -0.474
40  CC(C)c1noc(C(C)N2CCN(Cc3nc4ccccc4[nH]3)CC2)n1 (centres undefined)       -0.358
41  Cc1cc(C(=O)NC(C)Cc2cccc(Cl)c2)n(C)n1 (centres undefined)         10.6
42               Cc1sc(Oc2ccccc2Cl)nc1C(=O)O         10.7
43  CCNc1ncc(CN2CCOC(Cc3cccc(OC)c3)C2)cn1 (centres undefined)        0.956
44  CCCN(Cc1nnnn1C1CC1)CC1COc2ccccc2O1 (centres undefined)         7.59
45  Cc1ccc(-c2cc(CNC(=O)NC3CCCCNC3=O)on2)cc1 (centres undefined)       -0.304
46  CN1CCC(N(Cc2ccncc2)C(=O)COCC2CCCCO2)CC1 (centres undefined)         1.82
47     CN(Cc1ncc(-c2ccccc2C(=O)O)s1)c1ncccn1        -8.09
48  Cc1[nH]nc(CCC(=O)N2C[C@H]3CC[C@@H]2CN(C(=O)N(C)C)C3)c1C        0.209
49  Cc1cc(CN(C)C(C(=O)O)c2cccc(C(F)(F)F)c2)on1 (centres undefined)          3.9
